Below is a list of entries, each paired with its recorded OBP5 F.D. (%) fluorescence displacement percent value.
target-or-test-system: DabiOBP5 (Dioryctria abietella)
Sequence (A0A8E6HS34 19-139): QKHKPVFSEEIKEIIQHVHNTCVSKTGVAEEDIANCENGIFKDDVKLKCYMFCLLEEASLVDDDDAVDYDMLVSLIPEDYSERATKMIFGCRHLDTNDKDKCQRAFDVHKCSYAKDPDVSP
measurement-protocol: Competitive fluorescence binding assay with 1-NPN probe, recombinant DabiOBP5
experimental-setup: ligand at 20 μM; DabiOBP5/1-NPN each 2 μM; Tris-HCl pH 7.4; NB = no binding
// units = %; emit number, no label

CC/C=C\CCOC(C)=O [Z3-Hexenyl acetate] | 27.72
C=C(C)[C@H]1CC=C(C)CC1 | 38.31
CC1=C(C=O)C(C)(C)CCC1 | 32.90
CCC/C=C/CO [E2-Hexen-1-ol] | 36.50
CCCCC/C=C\C=C\C(=O)OCC [Ethyl-(2E,4Z)-decadienoate] | 69.83
CCC/C=C\C=O | 39.42
CC/C=C\CCO | 28.57
CCC/C=C/C=O [E2-Hexenal] | 33.10

Pending molecule:
Field OBP5 F.D. (%) fluorescence displacement percent (entry CC/C=C\CCOC(=O)CCC [Z3-Hexenyl butyrate] ) reads 20.80
